For each entry below, report its IC50 value.
target: NADPH oxidase (NOX) (Mus musculus, UniProt Q61093); type: biochemical, murine; conditions: ROS production triggered with NADPH (200 μM), 1-50 μM test drug, BV2 cell lysate; mean ± S.E.M., 3-6 experiments; read-out: IC50 (μM) in NOX activity from BV2 cell lysate

Entry C=C(CC[C@@H](C)[C@H]1CC[C@H]2C3=C(C(=O)[C@H](O)[C@]12C)[C@@]1(C)CC[C@@H](O)[C@@H](C)[C@@H]1CC3=O)C(C)C(=O)O (stereo partly shown) has what IC50?
40.3 µM

Fill in: IC50 of c1ccc2c(c1)[I+]c1ccccc1-2 [DPI, Diphenyleneiodonium, reference compound] is ___
0.4 µM

Name the reported IC50 value associated with the molecule C=C(CC[C@@H](C)[C@H]1CC[C@H]2C3=C(C(=O)C[C@]12C)[C@@]1(C)CCC(=O)[C@@H](C)[C@@H]1CC3)C(C)C(=O)O (stereo partly shown)
45.9 µM

Entry `C=C(C)C#Cc1c(OC)cc(OC)c(OC)c1C` : reported IC50 = ?
50.1 µM

* * *

test system: Hela (human cervical epitheloid carcinoma); experiment: MTT cytotoxicity assay, Hela; assay type: cell-based; details: Hela cell line
METRIC: ED50 (μg/mL) Hela

Recorded results for 5 molecules are shown here.
What measured ED50 (μg/mL) Hela goes with C=C(CC[C@@H](C)[C@H]1CC[C@H]2C3=C(C(=O)C[C@]12C)[C@@]1(C)CCC(=O)[C@@H](C)[C@@H]1CC3)C(C)C(=O)O (stereo partly drawn) ?
— (ED50 > 20 μg/mL)

Can you share its ED50 (μg/mL) Hela? I mean this molecule: `C=C(C)C#Cc1c(OC)cc(OC)c(OC)c1C`
6.9 µg/mL

What value of ED50 (μg/mL) Hela has been recorded for this entry: C=C(CC[C@@H](C)C1CCC2C3=C(C(=O)C[C@@]21C)[C@@]1(C)CCC(O)[C@@H](C)C1CC3=O)C(C)C(=O)OC (stereo in doubt)
9.0 µg/mL

Which ED50 (μg/mL) Hela value belongs to C=C(CC[C@@H](C)[C@H]1CC[C@@H]2C3=C(C(=O)C[C@@]21C)[C@@]1(C)CCC(=O)[C@@H](C)C1CC3)C(C)C(=O)OC (stereo partly drawn) ?
11.3 µg/mL

# input molecule: C=C(CC[C@@H](C)C1CCC2C3=C(C(=O)C[C@@]21C)[C@@]1(C)CCC(=O)[C@@H](C)C1CC3O)C(C)C(=O)OC (stereo in doubt) ; wanted: its ED50 (μg/mL) Hela
8.9 µg/mL

Here is another molecule to look at.
# input molecule: C=C(CC[C@@H](C)[C@H]1CC[C@H]2C3=C(C(=O)C[C@]12C)[C@@]1(C)CCC(=O)[C@@H](C)[C@@H]1CC3=O)C(C)C(=O)O (stereo partly drawn) ; wanted: its ED50 (μg/mL) Hela
— (ED50 > 20 μg/mL)
